// values below are reported SPOT signal as a fraction of Bim BH3's signal on the same receptor and array
# tgt: Bcl-xL, Q07817
# Sequence (Q07817 1-209): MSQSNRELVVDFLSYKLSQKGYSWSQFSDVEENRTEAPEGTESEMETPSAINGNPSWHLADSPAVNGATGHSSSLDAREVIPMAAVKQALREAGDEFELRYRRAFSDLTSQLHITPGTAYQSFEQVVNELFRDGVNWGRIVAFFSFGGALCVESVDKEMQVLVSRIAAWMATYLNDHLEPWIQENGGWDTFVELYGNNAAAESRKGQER
# protocol_summary: peptide SPOT array, c-Myc-tagged receptor at 1 uM or 100 nM, anti-c-Myc-Cy3

Observe how each entry below is paired with its result.
[
  {
    "binder": "SISLTPVAKGLENMGADFLESLEEGQ [SLC28A1]",
    "result": 0.02
  },
  {
    "binder": "SDIRDDISEQVRHVGRTVRGHPRKKL [TMEM184C]",
    "result": 0.92
  },
  {
    "binder": "WVKSIRICTPDGKLGDSCHPLTRKVP [PROK2]",
    "result": 1.01
  }
]

Then there is this binder:
Value lookup for SPOT signal as a fraction of Bim BH3's signal on the same receptor and array; key = WTLFVYTKGNFRMILDDLVNSYHLLL [RBL1] 0.09
